# Test system: CT-26
# TEST_NAME: MTT assay, curcumin concentration killing 50% of cells
# Format: cell-based
# EXPERIMENTAL_SETUP: CT26; CT-26, mouse colorectal adenocarcinoma; mean±SD (n=6); read-out: curcumin concentration required for killing 50% of the cells
VALUE_TYPE: pIC50
Expect pIC50 as a plain number equal to -log10 of the molar concentration.

I am curious: what pIC50 value has been reported for COc1cc(/C=C/C(=O)CC(=O)/C=C/c2ccc(O)c(OC)c2)ccc1O ?
5.10
